// reported hIP1 GRPR EC50 per item
ASSAY_TARGET: human GRP receptor (human, UniProt P30550 1-384)
Sequence (P30550 whole entry): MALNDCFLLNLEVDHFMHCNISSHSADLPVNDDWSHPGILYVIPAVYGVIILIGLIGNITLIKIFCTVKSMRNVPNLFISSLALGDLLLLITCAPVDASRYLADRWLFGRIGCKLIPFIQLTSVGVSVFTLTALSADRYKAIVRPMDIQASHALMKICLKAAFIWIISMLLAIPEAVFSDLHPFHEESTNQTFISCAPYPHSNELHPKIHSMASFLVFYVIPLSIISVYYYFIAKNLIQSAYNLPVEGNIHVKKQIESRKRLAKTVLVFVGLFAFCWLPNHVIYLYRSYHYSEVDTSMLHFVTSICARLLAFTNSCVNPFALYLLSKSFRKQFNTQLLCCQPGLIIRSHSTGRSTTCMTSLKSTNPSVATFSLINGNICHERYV
PROTOCOL: cell-based or functional assay
Starred links: 1 amine or outer side, 2 acyl side, 3 side chain; linkers in the order of their positions; H or OH if unused. Non-standard residues stand in square brackets, D forms with d. *: point of attachment. Trp(7-Me) = Cc1cccc2c(C[C@H](N)C(=O)O)c[nH]c12; C18 diacid = O=C(O)CCCCCCCCCCCCCCCCC(=O)*; γGlu = O=C(O)[C@H](CCC(=O)[*:2])N[*:1]; 2Nal = N[C@@H](Cc1ccc2ccccc2c1)C(=O)O; Nle = CCCC[C@H](N)C(=O)O; AEEA = NCCOCCOCC(=O)O; Sar = CNCC(=O)O
Reply with just the number (in nM).

- {C18 diacid}-[γGlu][AEEA][AEEA][AEEA][AEEA]GNH[Trp(7-Me)]AV[dA]HL[Nle]-NH2 (SMILES CCCC[C@H](NC(=O)[C@H](CC(C)C)NC(=O)[C@H](Cc1c[nH]cn1)NC(=O)[C@@H](C)NC(=O)[C@@H](NC(=O)[C@H](C)NC(=O)[C@H](Cc1c[nH]c2c(C)cccc12)NC(=O)[C@H](Cc1c[nH]cn1)NC(=O)[C@H](CC(N)=O)NC(=O)CNC(=O)COCCOCCNC(=O)COCCOCCNC(=O)COCCOCCNC(=O)COCCOCCNC(=O)CC[C@H](NC(=O)CCCCCCCCCCCCCCCCC(=O)O)C(=O)O)C(C)C)C(N)=O) [Peptide 90]: 12.6

Kindly consider the entry below.
Identify measured hIP1 GRPR EC50 associated with {C18 diacid}-[γGlu][AEEA][AEEA]GAH[2Nal]AV[dA]HL[Nle][Sar]-NH2 (SMILES CCCC[C@H](NC(=O)[C@H](CC(C)C)NC(=O)[C@H](Cc1c[nH]cn1)NC(=O)[C@@H](C)NC(=O)[C@@H](NC(=O)[C@H](C)NC(=O)[C@H](Cc1ccc2ccccc2c1)NC(=O)[C@H](Cc1c[nH]cn1)NC(=O)[C@H](C)NC(=O)CNC(=O)COCCOCCNC(=O)COCCOCCNC(=O)CC[C@H](NC(=O)CCCCCCCCCCCCCCCCC(=O)O)C(=O)O)C(C)C)C(=O)N(C)CC(N)=O) [Peptide 124]
2380
